Source of measurements: paper PMC2642989

system: T1, AfPiwi (UniProt O28951 1-427)
T1 sequence: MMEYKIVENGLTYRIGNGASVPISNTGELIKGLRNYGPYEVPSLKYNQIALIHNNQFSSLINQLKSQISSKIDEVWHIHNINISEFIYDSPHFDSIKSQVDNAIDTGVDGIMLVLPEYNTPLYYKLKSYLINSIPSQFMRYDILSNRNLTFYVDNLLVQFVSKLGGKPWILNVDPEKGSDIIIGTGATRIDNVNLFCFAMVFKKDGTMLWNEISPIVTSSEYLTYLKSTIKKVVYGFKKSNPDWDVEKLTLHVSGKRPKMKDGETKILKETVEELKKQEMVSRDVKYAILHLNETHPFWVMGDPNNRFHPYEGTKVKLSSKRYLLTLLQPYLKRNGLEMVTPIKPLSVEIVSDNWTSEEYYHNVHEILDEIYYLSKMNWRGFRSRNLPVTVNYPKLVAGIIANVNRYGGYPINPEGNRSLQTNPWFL
protocol_summary: ITC; target into AfPiwi-guide; 10 mM Mg2+; isolation 926 nM; ITC: 50 mM Tris pH 7.5, 150 mM KCl, 5% glycerol, 10 mM MgCl2, 1 mM DTT, 20 C; guide 3.5-24 uM in cell with 3-4 fold excess AfPiwi, target in syringe
test_conditions: protein: recombinant; T:G mismatch at guide position 1
property_name: pKd
A value of pKd is the negative decimal logarithm of a concentration given in moles per litre.

IN: Report pKd for Fig 5H DNA T:G mismatch at position 1 (dsDNA, guide 5' phosphate) DNA 1: TGTAGGTT DNA 2: AACCTACG please.
OUT: 7.77
